Hello, the source for this data is patent US20250361230A1, in case you need it.

target.or.system: LATS1 (Homo sapiens)
method.description: RBC HotSpot kinase assay (33P-ATP, P81 filter-binding), LATS1
Assay type: biochemical
run.parameters: Table 28, biochemical kinase assay; read-out: LATS1 IC50
pIC50: −log10 of the molar value.
measured.attribute: pIC50

{"molecule": "C[C@@H]1CN(C2COC2)C[C@H](C)[C@@]1(O)c1c(F)cc(-c2ccnc3[nH]cc(F)c23)cc1F [Compound 45]", "measured.attribute": "pIC50", "test.result": 8.47}
{"molecule": "Cc1cc(-c2ccnc3[nH]cc(F)c23)ccc1[C@@]1(O)[C@H](C)CN(C2CCOCC2)C[C@@H]1C [Compound 27]", "measured.attribute": "pIC50", "test.result": 8.77}

a. NCc1ccc(-c2ccnc3[nH]cc(-c4ccccc4)c23)cc1 [Compound 253]
b. Cc1nc(-c2ccnc3[nH]cc(F)c23)ccc1[C@@]1(O)[C@H](C)CNC[C@@H]1C [Compound 10]
c. c1cc(-c2ccc(C3CCNCC3)cn2)c2cc[nH]c2n1 [Compound 175]
Would you mind ranking these molecules by ascending pIC50? Response format: the labels, sorted as the prompt asks.
c, b, a
(c: 7.25, b: 7.63, a: 7.89)

* * *

target.or.system: LATS1 (Homo sapiens, UniProt O95835)
Sequence (O95835 whole entry): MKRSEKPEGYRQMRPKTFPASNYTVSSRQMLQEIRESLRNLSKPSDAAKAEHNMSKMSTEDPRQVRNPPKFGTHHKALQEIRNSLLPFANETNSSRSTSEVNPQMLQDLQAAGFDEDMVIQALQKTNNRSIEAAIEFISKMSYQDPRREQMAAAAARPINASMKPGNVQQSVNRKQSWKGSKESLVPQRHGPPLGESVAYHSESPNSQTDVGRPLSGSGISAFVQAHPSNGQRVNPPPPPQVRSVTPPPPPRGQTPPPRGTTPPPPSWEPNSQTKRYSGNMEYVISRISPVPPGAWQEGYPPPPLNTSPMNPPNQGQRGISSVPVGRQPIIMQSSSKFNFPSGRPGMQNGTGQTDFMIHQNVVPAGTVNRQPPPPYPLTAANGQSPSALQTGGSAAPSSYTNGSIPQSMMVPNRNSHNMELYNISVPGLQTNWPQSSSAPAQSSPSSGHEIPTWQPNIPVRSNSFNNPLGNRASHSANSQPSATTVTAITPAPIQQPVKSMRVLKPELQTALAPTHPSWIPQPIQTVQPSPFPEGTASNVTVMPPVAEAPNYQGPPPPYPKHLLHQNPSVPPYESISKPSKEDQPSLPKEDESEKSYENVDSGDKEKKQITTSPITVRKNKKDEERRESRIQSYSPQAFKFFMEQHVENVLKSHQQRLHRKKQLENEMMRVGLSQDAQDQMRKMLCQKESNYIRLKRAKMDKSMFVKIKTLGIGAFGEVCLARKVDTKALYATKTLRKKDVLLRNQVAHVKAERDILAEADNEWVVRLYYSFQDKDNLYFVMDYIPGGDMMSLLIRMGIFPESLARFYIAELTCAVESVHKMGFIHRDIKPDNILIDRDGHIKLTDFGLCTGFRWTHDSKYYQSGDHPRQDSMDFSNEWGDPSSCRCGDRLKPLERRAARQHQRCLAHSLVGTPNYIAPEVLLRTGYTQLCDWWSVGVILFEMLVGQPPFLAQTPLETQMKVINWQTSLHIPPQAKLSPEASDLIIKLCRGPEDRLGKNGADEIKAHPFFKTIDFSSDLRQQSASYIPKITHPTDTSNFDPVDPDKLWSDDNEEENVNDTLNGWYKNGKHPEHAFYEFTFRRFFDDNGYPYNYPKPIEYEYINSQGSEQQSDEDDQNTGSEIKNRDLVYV
method.description: RBC HotSpot kinase assay (33P-ATP, P81 filter-binding), LATS1
Format: biochemical
run.parameters: Table 28, biochemical kinase assay; read-out: LATS1 IC50
measured.attribute: IC50 (nM)

# example entries with known answers
{"compound": "Cc1cc(-c2ccnc3[nH]ccc23)ncc1CN [Compound 217]", "target.or.system": "LATS1 (Homo sapiens, UniProt O95835)", "measured.attribute": "IC50", "test.result": 8.2}
{"compound": "Cc1cc(-c2ccnc3[nH]cc(F)c23)cc(F)c1C1(O)CC2(CN(C3COC3)C2)C1 [Compound 139]", "target.or.system": "LATS1 (Homo sapiens, UniProt O95835)", "measured.attribute": "IC50", "test.result": 5.9}
{"compound": "CC(C)(O)C#Cc1cc(-c2ccnc3[nH]ccc23)ccc1CNCc1ccc(F)cc1 [Compound 281]", "target.or.system": "LATS1 (Homo sapiens, UniProt O95835)", "measured.attribute": "IC50", "test.result": 82.4}

I. CCOc1cc(-c2ccnc3[nH]ccc23)ccc1CN [Compound 269]
II. C[C@@H]1CN(C2CCS(=O)(=O)CC2)C[C@H](C)C1(O)c1c(F)cc(-c2ccnc3[nH]cc(F)c23)cc1F (some centres unmarked) [Compound 31]
Exercise: compare I and II ; which one has the greater IC50? Selection: enter the item's label.
I

I. OC1(c2ccc(-c3ccnc4[nH]ccc34)cc2)C[C@H]2CC[C@@H](C1)N2 (some centres unmarked) [Compound 115]
II. O=C(C1CC1)N1CCC(c2ccc(-c3ccnc4[nH]cc(F)c34)cc2Cl)CC1 [Compound 160]
Exercise: compare I and II ; which one has the greater IC50? Selection: enter the item's label.
II
(II: 451 nM, I: 7.2 nM)

* * *

target.or.system: UniProt:Q9NRM7
Sequence (Q9NRM7 whole entry): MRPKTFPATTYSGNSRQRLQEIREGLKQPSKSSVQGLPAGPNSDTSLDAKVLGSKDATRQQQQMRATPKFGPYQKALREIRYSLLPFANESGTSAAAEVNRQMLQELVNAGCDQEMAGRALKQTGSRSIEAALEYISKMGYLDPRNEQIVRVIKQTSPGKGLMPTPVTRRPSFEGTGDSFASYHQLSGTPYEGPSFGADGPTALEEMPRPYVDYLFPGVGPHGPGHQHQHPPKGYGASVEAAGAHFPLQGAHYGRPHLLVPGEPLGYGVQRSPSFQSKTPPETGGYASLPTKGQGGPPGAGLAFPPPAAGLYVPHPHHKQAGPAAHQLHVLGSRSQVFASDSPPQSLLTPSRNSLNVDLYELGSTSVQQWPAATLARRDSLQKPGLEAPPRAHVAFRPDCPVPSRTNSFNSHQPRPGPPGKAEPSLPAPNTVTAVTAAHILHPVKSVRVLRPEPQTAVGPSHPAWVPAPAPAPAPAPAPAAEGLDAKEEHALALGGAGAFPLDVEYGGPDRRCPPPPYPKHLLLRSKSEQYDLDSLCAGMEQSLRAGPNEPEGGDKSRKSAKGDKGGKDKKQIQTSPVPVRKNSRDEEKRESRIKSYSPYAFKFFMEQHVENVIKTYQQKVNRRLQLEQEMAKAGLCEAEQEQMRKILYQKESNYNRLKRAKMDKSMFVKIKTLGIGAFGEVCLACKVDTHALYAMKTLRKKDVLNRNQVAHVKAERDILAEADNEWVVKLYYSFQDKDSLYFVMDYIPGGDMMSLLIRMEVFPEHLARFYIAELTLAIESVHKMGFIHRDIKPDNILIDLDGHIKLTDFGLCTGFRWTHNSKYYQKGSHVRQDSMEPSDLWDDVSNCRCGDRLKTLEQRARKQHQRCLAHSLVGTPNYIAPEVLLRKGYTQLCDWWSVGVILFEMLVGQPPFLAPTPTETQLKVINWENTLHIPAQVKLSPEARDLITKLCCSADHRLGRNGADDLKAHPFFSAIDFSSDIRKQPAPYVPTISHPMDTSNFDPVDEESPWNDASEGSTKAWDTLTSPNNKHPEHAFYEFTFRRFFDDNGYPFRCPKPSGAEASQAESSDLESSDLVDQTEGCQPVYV
method.description: RBC HotSpot kinase assay (33P-ATP, P81 filter-binding), LATS2
Format: biochemical
run.parameters: Table 28, biochemical kinase assay; read-out: LATS2 IC50
measured.attribute: IC50 (nM)

# example entries with known answers
{"molecule": "CC1CN(C)CC(C)C1(O)c1ccc(-c2ccnc3[nH]cc(F)c23)cc1-c1ccccc1 (centres unmarked) [Compound 129]", "value.unit": "nM", "IC50": 190}
{"molecule": "Cc1cc(-c2ccnc3[nH]ccc23)ncc1CN [Compound 217]", "value.unit": "nM", "IC50": 12}
{"molecule": "Fc1ccccc1CNCc1ccc(-c2ccnc3[nH]ccc23)cc1 [Compound 204]", "value.unit": "nM", "IC50": 33.1}
{"molecule": "Cc1cc(-c2ccnc3[nH]cc(C)c23)cc(F)c1[C@@]1(O)[C@H](C)CN(C(=O)CN)C[C@@H]1C [Compound 314]", "value.unit": "nM", "IC50": 4.8}

A. Cc1nc(-c2ccnc3[nH]cc(F)c23)ccc1C1(O)CC2(CNC2)C1 [Compound 107]
B. NCc1ccc(-c2ccnc3[nH]cc(Cl)c23)cc1 [Compound 276]
Exercise: compare A and B ; which one has the greater IC50? Selection: enter the item's label.
A
(A: 661 nM, B: 5.8 nM)
